Tested on: H1975 (EGFR L858R/T790M mutant)
Assay method text: Cell viability assay, H1975
Format: cell-based
Assay setup: cellular potency ratio
Below, each entry is listed alongside its reported Selectivity over wildtype, Wildtype vs mutant H2073/H1975 (fold).

Known Selectivity over wildtype, Wildtype vs mutant H2073/H1975 (fold) results, listed for orientation:
# Molecule, Tested target, Observed value
measured = [
    ("C=CC(=O)Nc1cc(Nc2nccc(-n3cc(CN(C)C)c(C)n3)n2)c(OC)cc1N(C)C [Compound 71]", "H1975 (EGFR L858R/T790M mutant)", ">200 fold"),
    ("C=CC(=O)Nc1cc(Nc2ncc(C)c(-n3cc(CN4C[C@@H](O)[C@@H](O)C4)c(C)n3)n2)c(OC)cc1N1CCOCC1 [Compound 25]", "H1975 (EGFR L858R/T790M mutant)", "101-200 fold"),
]

Could you now consider this next molecule?
Query block: Consider the molecule C=CC(=O)Nc1cc(Nc2nccc(-n3cc(CN(C)C)c(-c4ccccc4)n3)n2)c(OC)cc1N1CCOCC1 [Compound 73] and give its recorded Selectivity over wildtype, Wildtype vs mutant H2073/H1975 (fold).
Result block: >200 fold

---

System: H1975 (EGFR L858R/T790M mutant)
Assay method text: Cell viability assay, H1975;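 also: NSCLC cells whose survival relies on EGFR L858R/T790M, exposed 72 h to serially diluted compound, ATP-based viability readout, with the H2073 line (wildtype EGFR dependent) as wildtype comparator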
Assay type: cell-based
Assay setup: cellular potency ratio
Quantity measured: Selectivity over wildtype, Wildtype vs mutant H2073/H1975 (fold)

# Compound, Observed value
data = [
    ("C=CC(=O)Nc1cc(Nc2nccc(-n3cc(CN(C)C)c(C(C)C)n3)n2)c(OC)cc1N1CCOCC1 [Compound 93]", "20-200 fold"),
    ("C=CC(=O)Nc1cc(Nc2ncc(C)c(-n3cc(C)c(CN4CC(O)C4)c3)n2)c(OC)cc1N1CCOCC1 [Compound 48]", "<20 fold"),
]

// moving on: another record for Selectivity over wildtype, Wildtype vs mutant H2073/H1975 (fold)
Query block: Recall and state the measured Selectivity over wildtype, Wildtype vs mutant H2073/H1975 (fold) for Cc1cc(Nc2nccc(-n3cc(CN4CC(O)C4)c(C4CC4)n3)n2)cc(C)c1OCCO [Compound 151, reference compound] .
Result block: <20 fold

---

pIC50: −log10 of the molar value.
As an illustration, consider measured pIC50 for compounds on SYK (Homo sapiens).

See these solved cases before continuing.
# Compound, Tested target, Quantity measured, Observed value
rows = [
    ("C=CC(=O)Nc1cc(Nc2nccc(-n3cc(CN(C)C)c(C4CC4)n3)n2)c(OC)cc1N1CCOCC1 [Compound 74]", "SYK (Homo sapiens)", "pIC50", "6.70 to 7.70"),
    ("C=CC(=O)Nc1cc(Nc2nccc(-n3cc(CN4CCC4)c(C)n3)n2)c(OC)cc1N1CCC(F)(F)CC1 [Compound 69]", "SYK (Homo sapiens)", "pIC50", "< 6.00"),
]

Query block: Report measured pIC50; entry is COc1cc(N2CCOCC2)c([N+](=O)[O-])cc1Nc1nccc(-n2cc(CN(C)C)c(-c3ccccc3)n2)n1 [Compound 152, reference compound]
Result block: < 6.00

Query block: // Input: C=CC(=O)Nc1cc(Nc2nccc(-n3cc(CN(C)C)c(-c4cccs4)n3)n2)c(OC)cc1N1CCOCC1 [Compound 88] . Output its pIC50 only.
Result block: 6.00 to 6.70

Query block: Answer with reported pIC50 of C=CC(=O)Nc1cc(Nc2ncc(F)c(-n3cc(C)c(CN4CCC4)c3)n2)c(OC)cc1N1CCOCC1 [Compound 60]
Result block: < 6.00
